Hello, the source for this data is patent US20240228562A1, in case you need it.

Target: T1, cynomolgus CTGF (cynomolgus, UniProt I7G525 27-349)
T1 construct: also called cyCTGF
T1 sequence: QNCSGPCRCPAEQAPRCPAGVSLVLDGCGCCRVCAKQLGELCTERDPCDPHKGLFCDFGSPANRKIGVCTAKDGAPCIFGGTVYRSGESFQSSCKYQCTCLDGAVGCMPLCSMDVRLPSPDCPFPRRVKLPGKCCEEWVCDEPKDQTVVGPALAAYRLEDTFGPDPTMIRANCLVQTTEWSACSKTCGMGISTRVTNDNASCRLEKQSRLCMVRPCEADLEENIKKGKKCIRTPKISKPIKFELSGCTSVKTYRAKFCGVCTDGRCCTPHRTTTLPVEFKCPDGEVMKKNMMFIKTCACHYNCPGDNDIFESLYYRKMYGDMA
Experiment: SPR (Biacore)
Procedure: The binding of exemplary lipocalin muteins to human (Creative Biomart), cynomolgus, rat (R&D Systems) and mouse CTGF (Abbexa) was determined by SPR using a Biacore instrument (Cytiva, formerly GE Healthcare). Some targets were fused to a human IgG1 Fc tag, and captured via the anti-human IgG antibody kit, others were directly immobilized. For some measurements, human CTGF with a human IgG1 Fc Tag or rat or murine CTGF without a tag were directly immobilized to a CM5 Chip. […]
kon overview
The reply should contain only the number, in M⁻¹ s⁻¹.

[[record]]
binder = "lipocalin mutein of SEQ ID NO: 31 (designed binder, also called hNGAL mutein; not shown: C-terminal His-tag) QDSTSDLIPAPPLSKVPLQQNFQDNQFQGKWYVVGWAGNVKLREDKQPQKMSATIYELKEDKSYDVTEVVFEQKKCHYIIKTFVPGSQPGEFTAGDIKSPPGYTSSLVRVVSTNYNQHAMVFFKKVSQNREFFWITLYGRTKELTSELKENFIRFSKSLGLPENHIVFPVPIDQCIDG"
assay_value = 162000


Now look at this one.
-- ask Please report the measured kon for lipocalin mutein of SEQ ID NO: 15 (designed binder, also called hNGAL mutein; not shown: C-terminal His-tag) QDSTSDLIPAPPLSKVPLQQNFQDNQFQGKWYVVGLAGNAILREDKQPAKMFATIYELKEDKSYDVTSVRFEAKSCKYTIKTFVPGSQPGEFTAGYIKSAPGQTSTLVRVVSTNYNQHAMVFFKHVTQNREIFVITLYGRTKELTSELKENFIRFSKSLGLPENHIVFPVPIDQCIDG
-- reply 107000
